# Tested on: Plasmodium falciparum
# Run Description: GSK_TCMDC: Inhibition of Plasmodium falciparum Dd2 in whole red blood cells, using parasite LDH activity as an index of growth. Test compounds present at 2uM
# Format: functional
For each entry below, report its Inhibition value.

Task: Given CCNCc1ccc(-c2cccc(-c3nc4ccccc4[nH]3)c2)cc1.O=C(O)C(F)(F)F , state its recorded Inhibition.
Output: 18%

Task: Entry COc1cc2c(cc1OC)C(C(=O)Nc1cc(OC)c(OC)c(OC)c1)C(c1ccc(SC)cc1)N(C)C2=O (centres undefined) : reported Inhibition = ?
Output: 64%

Task: Which Inhibition reading was recorded for the molecule Cn1ccnc1Sc1ncccc1[N+](=O)[O-] ?
Output: 2%

Task: Recorded Inhibition for O=C(NCCCN1CCC(NC(=O)c2ccc(-c3cccnc3)cc2)CC1)c1ccc(Cl)c(Cl)c1.O=C(O)C(F)(F)F , please?
Output: 23%

Task: Would you mind telling me what Inhibition value was observed for CN1CCC(Oc2ccc(CN3CC[C@H](NC(=O)c4ccc(F)c(F)c4)C3)c3ccccc23)C1.O=C(O)C(F)(F)F (some centres undefined) ?
Output: 27%

Task: Record request: Inhibition value, item Cc1cc(=O)c(-c2ccc(Oc3ccc(C(F)(F)F)cc3)cc2)c(C)n1O
Output: 78%

Task: Which Inhibition value belongs to O=C(O)C(F)(F)F.OCC1CCN(Cc2ccc(-c3cccc(-c4nc5cc(F)ccc5[nH]4)c3)cc2)CC1 ?
Output: 25%

Task: Param item = Cl.O=c1cc(NCCCNCc2cc(Br)cs2)[nH]c2ccccc12 ; retrieve measured Inhibition.
Output: 5%

Task: # get_value(readout='Inhibition', item= COc1cccc(CN2CCC3(CC2)CN(C(=O)Nc2ccc(Cl)c(Cl)c2)C3)c1 )
Output: 2%

----------
# System: HepG2
# Run Description: GSK_TCMDC: Percent inhibition of human HepG2 cell line. Test compounds present at 10uM.
# Format: functional
Recorded Metric: Inhibition (%)
Expressed in %, but write only the number.

Task: Give its Inhibition value. Item: Cl.N#Cc1ccc2c(c1)CCN(CCC1CCC(NC(=O)c3ccc(-c4ccccc4)s3)CC1)CC2 (centres undefined)
Output: 6

Task: For the molecule CC(=O)CCc1ccc(OCCN(Cc2ccccc2C(F)(F)F)c2ccc(C#N)c(C(F)(F)F)c2)cc1 , what Inhibition is on record?
Output: 14

Task: Which measured Inhibition value corresponds to CN1CCN(c2ccc3[nH]c(-c4ccc(Cc5cc(Cl)ccc5OCc5ccccc5)o4)nc3c2)CC1.Cl ?
Output: 27

Task: Request the reported Inhibition associated with Cc1cc(C)cc(OCC(O)CN(CCN2CCOCC2)C(=O)Nc2ccc(Br)cc2)c1.O=C(O)C(F)(F)F (centres undefined)
Output: 7

Task: Tell me the measured Inhibition of COc1ccc(Nc2nccc(-c3cccc(NC(=O)c4cc5cc(F)ccc5[nH]4)c3)n2)cc1 , please.
Output: 3

Task: Recorded Inhibition of Cc1ccccc1C1CCN(C2CCC(NC(=O)/C=C/c3ccc(Cl)cc3)CC2)CC1 (centres undefined) , please.
Output: 78

Task: Consider the molecule shown here: NS(=O)(=O)c1ccc(CNc2ccc3ncc(-c4ccc(Cl)cc4)n3n2)cc1 What is its recorded Inhibition?
Output: 26

Task: Fill in: Inhibition of CCC1CN(CCCn2c3ccccc3c3ccccc32)C(CC)CN1.Cl (centres undefined) is ___
Output: 69

Task: Inhibition lookup needed for CN(C)CCNC(=O)c1cc2c(-c3ccc(Cl)cc3)nn(C)c2s1 , thanks.
Output: 18
